Origin of measurements: patent US5807535A

Assign biodistribution liver to each entry below.
experiment: Biodistribution of 99mTc complexes in mice; format: in vivo, Balb/c mice; settings: 5 min
Don't forget the unit after the number, please.

Query string: Fill in the blank: the reported biodistribution liver of O=C(O)CN(CCN(CC(=O)O)CC(=O)Nc1ccccc1O)CC(=O)Nc1ccccc1O is ____.
Result string: 11.82 % Injected dose

Query string: Fill in the blank: the reported biodistribution liver of CC(C)(C)c1ccc(O)c(NC(=O)CN(CCN(CC(=O)O)CC(=O)Nc2cc(C(C)(C)C)ccc2O)CC(=O)O)c1 is ____.
Result string: 30.24 % Injected dose

Query string: Fill in the blank: the reported biodistribution liver of O=C(O)CN(CCN(CC(=O)O)CC(=O)Nc1ccc(Cl)cc1O)CC(=O)Nc1ccc(Cl)cc1O is ____.
Result string: 7.75 % Injected dose

Query string: Fill in the blank: the reported biodistribution liver of Nc1ccc(O)c(NC(=O)CN(CCN(CC(=O)O)CC(=O)Nc2cc(N)ccc2O)CC(=O)O)c1 is ____.
Result string: 4.34 % Injected dose

Query string: Fill in the blank: the reported biodistribution liver of Cc1cc(C)c(O)c(NC(=O)CN(CCN(CC(=O)O)CC(=O)Nc2cc(C)cc(C)c2O)CC(=O)O)c1 is ____.
Result string: 30.85 % Injected dose
